Give measured Population Hoechst High Intensity Objects (%) for each item. Keep answers brief.
Test system: HEK-293T
EXPERIMENTAL PROTOCOL: Multiplex assay against HEK293T
Assay type: toxicity, cell-based
CONDITION PARAMETERS: human, 24 h, 1 µM, compound concentration 1 uM, replicate 1
Answers are plain numbers, in %.

[[record]]
smiles_code = "O=C(Nc1ccc(Cl)cc1)Nc1cccc(-c2cccc(N3CCCC3)n2)c1"
experimental_system = "HEK-293T"
reported = 11

[[record]]
smiles_code = "CCc1cccc(CC)c1NC(=O)c1nn(C)c2c1CCc1cnc(Nc3ccc(C(=O)NC4CCN(C)CC4)cc3OC(F)(F)F)nc1-2"
experimental_system = "HEK-293T"
reported = 10

[[record]]
smiles_code = "COc1cc(N2CCN(C)CC2)ccc1Nc1ncc2c(n1)N(C)c1ccccc1C(=O)N2C"
experimental_system = "HEK-293T"
reported = 6


Documented Population Hoechst High Intensity Objects (%) of `O=C(Nc1ccc(-c2ccnc(Nc3ccc(N4CCOCC4)cc3)n2)cc1)[C@@H]1CCCN1` : 12

---

Test system: Fibroblast
EXPERIMENTAL PROTOCOL: Multiplex assay against human fibroblast
Type: toxicity, cell-based
CONDITION PARAMETERS: 24 h, 10 µM, compound concentration 10 uM, replicate 2
Give measured Population Normal (%) for each item. Keep answers brief.
One number for each entry, in %.

Study these solved cases before continuing.
[[record]]
molecule = "O=C(Cc1ccc(-c2ccc(OCCN3CCOCC3)cc2)cn1)NCc1ccccc1"
measurement_type = "Population Normal (%)"
reported = 89

[[record]]
molecule = "O=C(Nc1ccc(-n2nc(-c3cccnc3)cc2C(F)(F)F)cn1)c1ccc(-c2ccccc2)c(F)c1"
measurement_type = "Population Normal (%)"
reported = 96

[[record]]
molecule = "Cn1nc(C(F)(F)F)cc1-c1cnc(N2CCc3cc(S(=O)(=O)Nc4c(F)cc(Cl)cc4F)cc(N4CCCC4=O)c32)nc1"
measurement_type = "Population Normal (%)"
reported = 61

[[record]]
molecule = "CN1C2CCC1CC(OC(c1ccc(F)cc1)c1ccc(F)cc1)C2.Cl (stereo unspecified)"
measurement_type = "Population Normal (%)"
reported = 96

[[record]]
molecule = "O=C(Nc1ccc(Cl)cc1)Nc1cccc(-c2cccc(N3CCCC3)n2)c1"
measurement_type = "Population Normal (%)"
reported = 74


Please give Population Normal (%), item by item, for the list that follows.
1. CCOc1cc(C(=O)N2CCC(N3CCN(C)CC3)CC2)ccc1Nc1ncc2c(n1)N(C1CCCC1)c1ccccc1C(=O)N2C
2. CCOC(=O)c1c(C)[nH]c2ccc3c(c12)CN1CCc2cc(OC)ccc2C1O3 (stereo unspecified)
3. S=C(NCCCc1c[nH]cn1)NCCCN(Cc1ccc(Cl)c(Cl)c1)c1ccc(Br)cn1
4. Cc1ccc(C(=O)Nc2cccc(C(F)(F)F)c2)cc1Nc1nc(-c2cccnc2)nc2c1cnn2C
5. CCn1cc(-c2ccnc3[nH]c(-c4cccc(CN(C)C)c4)cc23)c(-c2ccc(NC(=O)N(C)C)cc2)n1
6. C=C1/C(=C\C=C2/CCC[C@]3(C)[C@@H]([C@H](C)/C=C/[C@H](C)C(C)C)CC[C@@H]23)C[C@@H](O)C[C@@H]1O

1. 88
2. 88
3. 74
4. 79
5. 55
6. 96

---

Test system: U2OS
EXPERIMENTAL PROTOCOL: Multiplex assay against U2OS
Assay type: toxicity, cell-based
CONDITION PARAMETERS: human, 24 h, 10 µM, compound concentration 10 uM, replicate 1
Give measured Population Tubulin-Different-Phenotype (%) for each item. Keep answers brief.
One number for each entry, in %.

Study these solved cases before continuing.
[[record]]
compound = "CCN1CCN(Cc2ccc(Nc3ncc(F)c(-c4cc(F)c5nc(C)n(C(C)C)c5c4)n3)nc2)CC1.CS(=O)(=O)O"
reported = 90

[[record]]
compound = "CN(C)C(=O)C(CCN1CCC(O)(c2ccc(Cl)cc2)CC1)(c1ccccc1)c1ccccc1.Cl [LOPERAMIDE HYDROCHLORIDE]"
reported = 100


Please give Population Tubulin-Different-Phenotype (%), item by item, for the list that follows.
1. CCn1c(=O)c(-c2ccc(-c3cncs3)cc2Cl)cc2cnc(Nc3ccc(N4CCN(C)CC4)cc3)nc21
2. Cc1ccc2nc(NCCN)c3ncc(C)n3c2c1.O=C(O)C(F)(F)F.O=C(O)C(F)(F)F
3. Cn1nc(C(=O)NCc2ccc(C(=O)O)cc2)cc1-c1ccc2[nH]ccc2c1
4. COCC(=O)NC/C=C/c1ccc2ncnc(Nc3ccc(Oc4ccc(C)nc4)c(C)c3)c2c1
5. COc1cccc2cc(-c3nc([C@H]4CC[C@H](C(=O)O)CC4)n4ncnc(N)c34)[nH]c12

1. 100
2. 32
3. 20
4. 100
5. 31

Documented Population Tubulin-Different-Phenotype (%) of `COC(=N)c1nc2ccc3ncnc(Nc4ccc(OC)cc4F)c3c2s1` : 28

---

Tested on: U2OS
EXPERIMENTAL PROTOCOL: Multiplex assay against U2OS
Format: toxicity, cell-based
CONDITION PARAMETERS: human, 24 h, 1 µM, compound concentration 1 uM, replicate 1
MEASUREMENT TYPE: Total Cell Count
Answers are plain numbers.

Study these solved cases before continuing.
[[record]]
compound = "COc1cccc2cc(-c3nc([C@H]4CC[C@H](C(=O)O)CC4)n4ncnc(N)c34)[nH]c12"
measurement_type = "Total Cell Count"
reported = 270

[[record]]
compound = "CN1CCC(=C2c3ccccc3CC(=O)c3sccc32)CC1.O=C(O)/C=C/C(=O)O [KETOTIFEN FUMARATE]"
measurement_type = "Total Cell Count"
reported = 180

[[record]]
compound = "CCN1CCN(Cc2ccc(Nc3ncc(F)c(-c4cc(F)c5nc(C)n(C(C)C)c5c4)n3)nc2)CC1.CS(=O)(=O)O"
measurement_type = "Total Cell Count"
reported = 171

[[record]]
compound = "CN1CCN(C(=O)C(C)(C)c2ccc(C(=O)Nc3cn4cc(-c5cc(C(C)(C)C)cc(C(C)(C)C)c5)ccc4n3)cc2)CC1"
measurement_type = "Total Cell Count"
reported = 175

[[record]]
compound = "COc1ccc(S(=O)(=O)N(CCO)c2ccccc2CN(C)C/C=C/c2ccc(Cl)cc2)cc1.O=P(O)(O)O"
measurement_type = "Total Cell Count"
reported = 125

[[record]]
compound = "COC(=N)c1nc2ccc3ncnc(Nc4ccc(OC)cc4F)c3c2s1"
measurement_type = "Total Cell Count"
reported = 219


Please give Total Cell Count, item by item, for the list that follows.
1. Cc1cn(-c2cc(NC(=O)c3ccc(C)c(Nc4nccc(-c5cccnc5)n4)c3)cc(C(F)(F)F)c2)cn1
2. S=C(NCCCc1c[nH]cn1)NCCCN(Cc1ccc(Cl)c(Cl)c1)c1ccc(Br)cn1
3. O=C1N/C(=N/c2ccccc2F)S/C1=C\c1ccc(C(=O)O)cc1
4. COc1cc2ncnc(Nc3ccc(F)c(Cl)c3)c2cc1NC(=O)/C=C/CN1CCCCC1 [DACOMITINIB ANHYDROUS]
5. Cl.O=c1c2cccn2c2ccccc2n1CCCN1CCC(c2ccc(Cl)cc2)CC1
6. CN1C2CCC1CC(OC(c1ccc(F)cc1)c1ccc(F)cc1)C2.Cl (configuration not stated)
7. CN(C)C(=O)C(CCN1CCC(O)(c2ccc(Cl)cc2)CC1)(c1ccccc1)c1ccccc1.Cl [LOPERAMIDE HYDROCHLORIDE]

[135, 199, 131, 262, 300, 305, 222]

---

Give measured Population Tubulin-Different-Phenotype (%) for each item. Keep answers brief.
Test system: Fibroblast
EXPERIMENTAL PROTOCOL: Multiplex assay against human fibroblast
Type: toxicity, cell-based
CONDITION PARAMETERS: 24 h, 1 µM, compound concentration 1 uM, replicate 1
Answers are plain numbers, in %.

Study these solved cases before continuing.
[[record]]
molecule = "Cl.O=c1c2cccn2c2ccccc2n1CCCN1CCC(c2ccc(Cl)cc2)CC1"
endpoint_unit = "%"
reported = 45

[[record]]
molecule = "CCN1CCN(Cc2ccc(Nc3ncc(F)c(-c4cc(F)c5nc(C)n(C(C)C)c5c4)n3)nc2)CC1.CS(=O)(=O)O"
endpoint_unit = "%"
reported = 69

[[record]]
molecule = "COc1cc(N2CCN(C)CC2)ccc1Nc1ncc2c(n1)N(C)c1ccccc1C(=O)N2C"
endpoint_unit = "%"
reported = 26

[[record]]
molecule = "O=C(Nc1ccc(Cl)cc1)Nc1cccc(-c2cccc(N3CCCC3)n2)c1"
endpoint_unit = "%"
reported = 42

[[record]]
molecule = "CCNc1cc(N[C@H]2CC[C@H](O)CC2)nc(Nc2ccc3c(ccn3Cc3ccccc3)c2)n1"
endpoint_unit = "%"
reported = 10


Please give Population Tubulin-Different-Phenotype (%), item by item, for the list that follows.
1. Cc1cn(-c2cc(NC(=O)c3ccc(C)c(Nc4nccc(-c5cccnc5)n4)c3)cc(C(F)(F)F)c2)cn1
2. CN1CCC(=C2c3ccccc3CC(=O)c3sccc32)CC1.O=C(O)/C=C/C(=O)O [KETOTIFEN FUMARATE]
3. CCOc1cc2ncc(C#N)c(Nc3ccc(OCc4ccccn4)c(Cl)c3)c2cc1NC(=O)/C=C/CN(C)C

1: 92; 2: 38; 3: 53

Just for reference, ChEMBL document CHEMBL4689842 is where these values come from.
